System: glucagon-like peptide-1 receptor (GLP-1R)
Measurement Protocol: cell-based or functional assay
Non-standard residues stand in square brackets, D forms with d. No end group written: not given here. *: point of attachment. X2 = Eicosanedioic‑γGlu‑(AEEA)2‑Lys(Ac)‑Gly, CC(=O)NCCCC[C@H](NC(=O)COCCOCCNC(=O)COCCOCCNC(=O)CC[C@H](NC(=O)CCCCCCCCCCCCCCCCCCC(=O)O)C(=O)O)C(=O)NCC(=O)*; Aib = CC(C)(N)C(=O)O
Readout Name: EC50 (nM), GLP-1 activity
Answer format: numeric, nM implied, no suffix.

Memo: H[Aib]QGTFTSDYSKYLDSKKAQEFVQWLLN[Aib]GRNRNNIAC(Eicosanedioic‑γGlu‑Glu‑(AEEA)3‑Lys(Ac)‑Gly)-NH2 [Variant 3 (Formula XVI)] , reported EC50 (nM), GLP-1 activity: 0.15

Memo: H[Aib]QGTFTSDYSKYLDSKKAQEFVQWLLN[Aib]GRNRNNIAC(X2)-NH2 [OPK-88604 (modified OXM of Formula XIV)] , reported EC50 (nM), GLP-1 activity: 0.09

Memo: H[Aib]QGTFTSDYSKYLDSKKAQEFVQWLLN[Aib]GRNRNNIAC-NH2 (not fully specified (residue 38)) [Variant 2 (Formula XV)] , reported EC50 (nM), GLP-1 activity: 0.1

Memo: HXQGTFTSDYSKYLDSKKAQEFVQWLLNXGRNRNNIACC (Aib at positions 2 and 29; one Eicosanedioic-gGlu-Glu-AEEA-AEEA-AEEA-Lys(Ac-)-Gly-OH binder on Cys38 (Formula XXII, SEQ ID NO: 47) or on Cys39 (Formula XXIII, SEQ ID NO: 48); C-terminal amide (backbone C^38C^39-NH2)) , reported EC50 (nM), GLP-1 activity: 0.21
